# Tested on: MCF7
# method_notes: Anticancer activity against human MCF7 cells after 72 hrs by WST-1 assay
# Assay type: functional, cell-based
# conditions: MCF7, 72 h
pIC50: −log10 of the molar value.
measured_endpoint: pIC50

Check out these entries, answers already filled in.
Cn1c(-c2nc(-c3ccc(Cl)cc3)no2)cc2cc(Cl)ccc21 < 4.30
Cc1noc(-c2cc3cc(F)ccc3[nH]2)n1 4.91
O=[N+]([O-])c1ccc2[nH]c(-c3nc(-c4ccccc4)no3)cc2c1 < 4.30
Clc1ccc(-c2noc(-c3cc4cc(Cl)ccc4[nH]3)n2)cc1 < 4.30

query: Give pIC50 for the following compound: Cc1noc(-c2cc3ccccc3[nH]2)n1
result: < 4.30

---

# Tested on: MCF7
# method_notes: Anticancer activity against human MCF7 cells after 72 hrs by WST-1 assay
# Assay type: functional, cell-based
# conditions: MCF7, 72 h
measured_endpoint: IC50 (µM)

Cc1noc(-c2cc3cc(Cl)ccc3[nH]2)n1 34.4

[1] Oc1ccc2[nH]c(-c3nc(-c4ccccc4)no3)cc2c1
[2] COc1ccc2[nH]c(-c3nc(C)no3)cc2c1
query: // pick min by IC50: 1 , 2 Use the label to indicate which entry you chose.
result: 2
(2: 16.7 µM, 1: 26 µM)

---

Here, each record is paired with measured fold change (FC) data.
# System: MIA PaCa-2
# method_notes: Induction of apoptosis in human MIAPaCa2 cells assessed as increase in caspase 3/7 activation at 100 uM after 24 hrs by spectrophotometry relative to control
# Format: functional
// return just the number, without any unit appended

COc1ccc(-c2noc(-c3cc4cc(Cl)ccc4[nH]3)n2)cc1 1.4
O=[N+]([O-])c1ccc2[nH]c(-c3nc(-c4ccc(Cl)cc4)no3)cc2c1 23.9
COc1ccc2[nH]c(-c3nc(-c4ccc(Cl)cc4)no3)cc2c1 10.1
Cc1noc(-c2cc3cc(F)ccc3[nH]2)n1 1.3

query: Fill in fold change (FC) for record COc1ccc(-c2noc(-c3cc4cc(OC)ccc4[nH]3)n2)cc1
result: 2

query: Give recorded fold change (FC). COc1ccc(-c2noc(-c3cc4cc(F)ccc4[nH]3)n2)cc1
result: 5

query: Look up fold change (FC) of c1ccc(-c2noc(-c3cc4ccccc4[nH]3)n2)cc1 and report it.
result: 1.2

---

# System: MCF7
# method_notes: Anticancer activity against human MCF7 cells after 72 hrs by WST-1 assay
# Assay type: functional, cell-based
# conditions: MCF7, 72 h
measured_endpoint: IC50

COc1ccc(-c2noc(-c3cc4ccccc4[nH]3)n2)cc1 > 50 µM
Clc1ccc2[nH]c(-c3nc(-c4ccccc4)no3)cc2c1 29.1 µM

query: For the compound Fc1ccc2[nH]c(-c3nc(-c4ccccc4)no3)cc2c1 , give its reported IC50.
result: 35 µM

query: Using the record for COc1ccc(-c2noc(-c3cc4cc(Cl)ccc4[nH]3)n2)cc1 , state its measured IC50.
result: > 50 µM

query: Look up and report measured IC50 for this entry: COc1ccc2[nH]c(-c3nc(-c4ccccc4)no3)cc2c1
result: > 50 µM

query: Complete the entry with IC50 for COc1ccc2[nH]c(-c3nc(-c4ccc(Cl)cc4)no3)cc2c1
result: > 50 µM

---

# System: MCF7
# method_notes: Anticancer activity against human MCF7 cells after 72 hrs by WST-1 assay
# Type: functional, cell-based
# conditions: MCF7, 72 h
measured_endpoint: IC50

Nc1noc(-c2cc3ccccc3[nH]2)n1 > 50 µM
Clc1ccc(-c2noc(-c3cc4ccccc4[nH]3)n2)cc1 > 50 µM
c1ccc(-c2noc(-c3cc4ccccc4[nH]3)n2)cc1 45.7 µM
Fc1ccc2[nH]c(-c3nc(-c4ccc(Cl)cc4)no3)cc2c1 > 50 µM
COc1ccc(-c2noc(-c3cc4ccccc4n3C)n2)cc1 > 50 µM

Attention now shifts to the item below.
query: Return IC50 for the following compound: FC(F)(F)c1ccc(-c2noc(-c3sccc3Cl)n2)cc1
result: > 50 µM

---

Recorded IC50 values for a group of molecules are listed next.
# Tested on: MCF7
# method_notes: Anticancer activity against human MCF7 cells after 72 hrs by WST-1 assay
# Format: functional, cell-based
# conditions: MCF7, 72 h

Please review the entries below; each comes with its answer.
O=[N+]([O-])c1ccc2[nH]c(-c3nc(-c4ccc(Cl)cc4)no3)cc2c1 > 50 µM
COc1ccc(-c2noc(-c3cc4cc(OC)ccc4[nH]3)n2)cc1 > 50 µM

// below: IC50 requested for another molecule
query: For COc1ccc(-c2noc(-c3cc4cc(F)ccc4[nH]3)n2)cc1 , write its IC50.
result: > 50 µM

---

# Test system: MIA PaCa-2
# method_notes: Induction of apoptosis in human MIAPaCa2 cells assessed as increase in caspase 3/7 activation at 100 uM after 24 hrs by spectrophotometry relative to control
# Assay type: functional
measured_endpoint: fold change (FC)
Write the value as a bare number.

Here is how some compounds turned out for fold change (FC).
Oc1ccc2[nH]c(-c3nc(-c4ccccc4)no3)cc2c1 0.7
Clc1ccc(-c2noc(-c3cc4ccccc4[nH]3)n2)cc1 1.2
Clc1ccc2[nH]c(-c3nc(-c4ccccc4)no3)cc2c1 1.9

Consider the additional compound presented here.
query: Report fold change (FC) on MIA PaCa-2 for this entry: Fc1ccc2[nH]c(-c3nc(-c4ccccc4)no3)cc2c1
result: 1.2

Just for reference, ChEMBL document CHEMBL1250498 is where these values come from.
